assay-setup: in n-propanol, 304.15 K
assay-readout: solubility (mole fraction)
Simply state the number, no unit and no words.

Prompt: # solubility (mole fraction) lookup, item `OCc1cn(Cc2ccccc2)nn1`
Completion: 0.0909

###

assay-setup: in ethanol, 310.15 K
assay-readout: solubility (mole fraction)

Prompt: Please give the measured solubility (mole fraction) for this compound: `OCc1cn(Cc2ccccc2)nn1`
Completion: 0.198

###

assay-setup: in n-propanol, 310.15 K
assay-readout: solubility (mole fraction)
Would you mind answering with just the numeric figure?

Prompt: Requested read-out: solubility (mole fraction). Entry: `OCc1cn(Cc2ccccc2)nn1`
Completion: 0.141

###

assay-setup: in isopropanol, 292.15 K
assay-readout: solubility (mole fraction)
Lab note: jot the number down without any unit.

Prompt: What value of measured solubility (mole fraction) is listed for `OCc1cn(Cc2ccccc2)nn1` ?
Completion: 0.0322

Where do the numbers come from? From BigSolDB 2.1.
